PROTOCOL NOTES: reducers of endogenous Her2 protein level, primary screen, SKBR3 breast tumor cells, AlphaScreen, ATP viability (AID 461);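 for viability: percent of carrier control wells set as 100% viability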
CONDITION DESCRIPTION: 18-24 h, measured here: SKBR3 viability, ATP luminescence, at 10 µM
RECORDED ENDPOINT: viability (%)
The reply should contain only the number, in %.

>  <COMPOUND>
Cn1c(SCC(=O)N2CCOCC2)nnc1-c1cccc(NC(=O)c2ccccc2F)c1

>  <viability [%]>
102

$$$$
>  <COMPOUND>
COc1ccc(OC)c(S(=O)(=O)N2c3ccccc3CC2C)c1 (configuration not stated)

>  <viability [%]>
82.5

$$$$
>  <COMPOUND>
Cc1ccc(Cl)cc1N1CCN(C(=O)C2CCCN(S(=O)(=O)c3cnc[nH]3)C2)CC1 (configuration not stated)

>  <viability [%]>
86.5

$$$$
>  <COMPOUND>
CC(C)OCCCNC(=O)c1cc2c(s1)CS(=O)(=O)C2

>  <viability [%]>
99

$$$$
>  <COMPOUND>
CCOc1cc(C(=O)N2CCN=C2SC)cc(OCC)c1OCC

>  <viability [%]>
91.5

$$$$
>  <COMPOUND>
CCc1nnc(NC(=O)c2ccc(COc3ccccc3)o2)s1

>  <viability [%]>
97

$$$$

Now, please, on to the next compound.
Measured viability of CCCn1c(N2CCN(CC(=O)Nc3ccc4c(c3)OCCO4)CC2)nc2ccccc21 : 88.5

* * *

EXPERIMENTAL SYSTEM: Receptor tyrosine-protein kinase erbB-2 (Homo sapiens) (UniProt P04626)
Sequence (P04626 whole entry, looked up): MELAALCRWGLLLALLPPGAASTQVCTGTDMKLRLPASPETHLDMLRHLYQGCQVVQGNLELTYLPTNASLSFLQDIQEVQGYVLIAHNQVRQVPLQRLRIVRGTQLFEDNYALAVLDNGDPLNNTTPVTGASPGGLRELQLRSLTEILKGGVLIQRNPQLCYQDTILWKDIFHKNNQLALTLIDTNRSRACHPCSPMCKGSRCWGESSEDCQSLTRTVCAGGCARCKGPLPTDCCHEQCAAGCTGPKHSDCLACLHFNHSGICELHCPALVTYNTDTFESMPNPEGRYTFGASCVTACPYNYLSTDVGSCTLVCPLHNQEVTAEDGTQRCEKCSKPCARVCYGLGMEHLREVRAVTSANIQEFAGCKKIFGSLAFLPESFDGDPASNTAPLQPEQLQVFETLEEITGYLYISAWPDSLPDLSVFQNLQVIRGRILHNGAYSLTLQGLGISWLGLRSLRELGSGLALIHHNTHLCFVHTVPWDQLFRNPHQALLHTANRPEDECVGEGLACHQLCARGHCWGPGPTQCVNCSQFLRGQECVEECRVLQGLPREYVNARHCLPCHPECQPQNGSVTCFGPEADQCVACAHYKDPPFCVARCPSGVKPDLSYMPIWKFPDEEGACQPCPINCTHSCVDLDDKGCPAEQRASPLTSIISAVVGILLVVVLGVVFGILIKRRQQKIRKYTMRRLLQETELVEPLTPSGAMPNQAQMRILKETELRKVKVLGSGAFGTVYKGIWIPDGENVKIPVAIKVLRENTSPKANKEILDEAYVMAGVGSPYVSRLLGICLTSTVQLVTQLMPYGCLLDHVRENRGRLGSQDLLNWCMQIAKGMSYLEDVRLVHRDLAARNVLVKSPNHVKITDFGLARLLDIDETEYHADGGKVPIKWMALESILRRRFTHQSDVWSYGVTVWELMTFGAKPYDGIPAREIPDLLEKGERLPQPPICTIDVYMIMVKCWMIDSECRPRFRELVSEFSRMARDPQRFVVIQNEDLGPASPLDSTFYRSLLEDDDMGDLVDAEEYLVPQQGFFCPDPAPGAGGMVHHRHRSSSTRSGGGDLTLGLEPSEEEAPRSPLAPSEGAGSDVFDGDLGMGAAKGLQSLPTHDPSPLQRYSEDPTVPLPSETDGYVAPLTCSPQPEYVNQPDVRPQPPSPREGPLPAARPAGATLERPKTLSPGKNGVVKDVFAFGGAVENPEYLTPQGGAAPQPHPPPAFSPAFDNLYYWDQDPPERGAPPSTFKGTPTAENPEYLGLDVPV
PROTOCOL NOTES: reducers of endogenous Her2 protein level, primary screen, SKBR3 breast tumor cells, AlphaScreen, ATP viability (AID 461);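 for Her2 level: lower value means less Her2 protein in the cells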;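 for viability: percent of carrier control wells set as 100% viability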
CONDITION DESCRIPTION: 18-24 h, at 10 µM, stronger effect = lower value
I'd appreciate it if you marked entries satisfied when Her2 level is lower than 90% and not satisfied when it is not.

>  <COMPOUND>
Cc1nn(-c2ccc(F)cc2)c2sc(C(=O)O)cc12

>  <GROUP>
not satisfied

$$$$
>  <COMPOUND>
CCOC(=O)c1c(NC(=O)CSc2nnc(-c3ccc(OC)cc3)o2)sc2c1CCC2

>  <GROUP>
not satisfied

$$$$
>  <COMPOUND>
CC(=O)c1cc(-c2ccc(F)cc2)n(CCC(=O)Nc2cc(C)[nH]n2)c1C

>  <GROUP>
satisfied

$$$$
>  <COMPOUND>
COc1ccc(-n2ncc3c(=O)n(CC(=O)OCc4ccccc4)cnc32)cc1

>  <GROUP>
not satisfied

$$$$

Query string: Please let me know if c1ccc(CCc2nc(-c3cccnc3)no2)cc1 shows Her2 level below 90%.
Result string: satisfied

Query string: Please let me know if CCN(C#N)c1nc(NC(C)C)nc(NC(C)C)n1 shows Her2 level below 90%.
Result string: not satisfied

* * *

PROTOCOL NOTES: reversal of MRP1-mediated doxorubicin resistance, pilot screen, H69AR cells, doxorubicin co-treatment (AID 601)
CONDITION DESCRIPTION: H69AR cells + 2 uM doxorubicin, CellTiter-Glo, 72 h; at 10 µM; stronger effect = higher value
Activity calls are given as the source filed them.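 How the source made its calls: active means viability loss from added drug above about 55%, and viability with drug at most 40%, in both replicates (limit read from the data, passing the limit was not always enough); inconclusive means both conditions met in only one replicate; inactive means neither replicate meets both conditions.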
RECORDED ENDPOINT: differential viability (reversal)

Study these solved cases before continuing.
>  <SMILES REPR>
CC1(C)CNC(=O)CC(C)(C)N1O

>  <differential viability (reversal)>
3.01% (inactive)

$$$$
>  <SMILES REPR>
COc1ccc(-c2cc(C(F)(F)F)nc(SCCC(=O)N3CCOCC3)n2)cc1

>  <differential viability (reversal)>
3.6% (inactive)

$$$$
>  <SMILES REPR>
CCCCCc1c(O)c2ccccc2[nH]c1=O

>  <differential viability (reversal)>
3.62% (inactive)

$$$$
>  <SMILES REPR>
CCOC(=O)c1cc2sccc2n1CC(=O)Nc1ccc(OC)cc1OC

>  <differential viability (reversal)>
-7.66% (inactive)

$$$$

Now, please, on to the next compound.
Measured differential viability (reversal) of CC(C)NC(=O)CSc1nnc(-c2ccc(C(C)(C)C)cc2)n1C : 11.6% (inactive)
